// data source = paper PMC7587356

molecular target: SARS-CoV-2 3CLpro (Severe acute respiratory syndrome coronavirus 2, UniProt P0DTD1); experiment: biochemical; type: biochemical; set-up: unit not given here; conditions: sheet LOPAC_screen_w_protease; primary screen with protease, compound at 5 µM; replicate 2
Quantity Name: Replicate_2
Please reply with the value in numeric form only.

## Task // query Replicate_2 value for entry N#CC(=Cc1ccc(O)c(O)c1)C(=O)NCCc1ccccc1 [Tyrphostin AG 698]
## Result 2.808

## Task // query Replicate_2 value for entry `Cc1cccc(C#Cc2ccccc2)n1.Cl`
## Result 3.968

## Task // query Replicate_2 value for entry CC(C)(C)c1onc(OCP(=O)(O)O)c1CC(N)C(=O)O (centres unmarked) [ATPO]
## Result 2.152

## Task // query Replicate_2 value for entry CC[C@H](C)[C@H]1O[C@]2(CC[C@@H]1C)C[C@@H]1C[C@@H](C/C=C(\C)[C@@H](O[C@H]3C[C@H](OC)[C@@H](O[C@H]4C[C@H](OC)[C@@H](O)[C@H](C)O4)[C@H](C)O3)[C@@H](C)/C=C/C=C3\CO[C@@H]4[C@H](O)C(C)=C[C@@H](C(=O)O1)[C@]34O)O2 [Ivermectin]
## Result 2.952

## Task // query Replicate_2 value for entry `Cl.Fc1ccc(C(OCCCc2c[nH]cn2)c2ccc(F)cc2)cc1`
## Result 3.825

## Task // query Replicate_2 value for entry CCN(CC)C(C)C(=O)N1c2ccccc2Sc2ccccc21.Cl (centres unmarked)
## Result 0.3523

## Task // query Replicate_2 value for entry C[C@@]1(C2CCCC2)Cc2cc(OCC(=O)O)c(Cl)c(Cl)c2C1=O [R(+)-IAA-94]
## Result 3.637

## Task // query Replicate_2 value for entry O=C1OC(=O)[C@H]2[C@@H]1[C@@H]1CC[C@H]2O1 [Norcantharidin]
## Result 3.909

====

molecular target: SARS-CoV-2 3CLpro (Severe acute respiratory syndrome coronavirus 2); test: biochemical; type: biochemical; design: unit not given here; details: sheet LOPAC_screen_w_protease; LOPAC1280 at 5 µM; replicate 2
Quantity Name: Replicate_2
Please reply with the value in numeric form only.

## Task // query Replicate_2 value for entry `Nn1nnc2ccccc21`
## Result 0.8595

## Task // query Replicate_2 value for entry COc1ccccc1N1CCN(CCN(C(=O)C2CCCCC2)c2ccccn2)CC1.O=C(O)/C=C\C(=O)O [WAY-100635 maleate]
## Result 0.6169

## Task // query Replicate_2 value for entry `Cl.NC1(C(=O)O)CC1`
## Result -0.2629

## Task // query Replicate_2 value for entry `N[C@@H](CCCC(=O)O)C(=O)O`
## Result 0.6027

## Task // query Replicate_2 value for entry `Cn1cc(C(=O)OCC2CCN(CCNS(C)(=O)=O)CC2)c2ccccc21`
## Result 0.838

## Task // query Replicate_2 value for entry `N[C@H](CCC(=O)NCS(=O)(=O)O)C(=O)O`
## Result -2.2619

## Task // query Replicate_2 value for entry `CCNC(=O)[C@H]1O[C@@H](n2cnc3c(NCc4ccccc4)ncnc32)[C@H](O)[C@@H]1O`
## Result 2.645

## Task // query Replicate_2 value for entry CNCCc1ccc(O)c(O)c1.Cl [N-Methyldopamine hydrochloride]
## Result 1.799

## Task // query Replicate_2 value for entry `CN(CCOc1ccc(C[C@H](Nc2ccccc2C(=O)c2ccccc2)C(=O)O)cc1)c1ccccn1`
## Result 1.38

## Task // query Replicate_2 value for entry Cl.Cl.c1ccc(CCCN2CCN(CCOC(c3ccccc3)c3ccccc3)CC2)cc1 [GBR-12935 dihydrochloride]
## Result -0.2925

## Task // query Replicate_2 value for entry C[N+](C)(C)CCCCCCCCCC[N+](C)(C)C.[Br-].[Br-] [Decamethonium dibromide]
## Result -0.5048

## Task // query Replicate_2 value for entry COc1cc(C(O)C(=O)O)ccc1O (racemic) [(±)-Vanillylmandelic acid]
## Result -0.449

## Task // query Replicate_2 value for entry Cc1nc(-c2ccc(-c3ccc(C(=O)N4CCc5cc6c(cc54)C4(CCN(C)CC4)CO6)cc3)c(C)c2)no1.Cl [SB 224289 hydrochloride]
## Result -0.3926

## Task // query Replicate_2 value for entry `COc1ccccc1N1CCNCC1.Cl`
## Result 0.5839

## Task // query Replicate_2 value for entry Br.CCSC(=N)N [S-Ethylisothiourea hydrobromide]
## Result -0.4768

## Task // query Replicate_2 value for entry Cl.OCc1c[nH]cn1 [4-Imidazolemethanol hydrochloride]
## Result -0.4285

## Task // query Replicate_2 value for entry N#CCCN.N#CCCN.O=C(O)/C=C/C(=O)O [3-Aminopropionitrile fumarate]
## Result 0.3384

## Task // query Replicate_2 value for entry O=C(O)CCC(C(=O)O)N1C(=O)c2ccccc2C1=O (stereo not drawn)
## Result 0.6803

====

biological target: SARS-CoV-2 3CLpro (Severe acute respiratory syndrome coronavirus 2, UniProt P0DTD1); test: biochemical; type: biochemical; conditions: 4 h, sheet LOPAC_screen_w_protease; primary screen of LOPAC1280 at 5 µM with protease; replicate 1; read-out: Replicate_1
Structures can show the parent of a compound that is named as a salt.
Give inhibition at 5 µM for every item shown.
Use % as the unit, but write only the number.

## Task // query inhibition at 5 µM value for entry COc1cccc2c1[C@@H]1CN(CCCCn3c(=O)[nH]c4c(sc5ncc(-c6ccccc6)nc54)c3=O)C[C@@H]1CO2 [Fiduxosin hydrochloride]
## Result 3.54

## Task // query inhibition at 5 µM value for entry Cn1cnc2c1c(=O)[nH]c(=O)n2C [Theobromine]
## Result 4.5

## Task // query inhibition at 5 µM value for entry CC(=O)OCC1=C(C(=O)O)N2C(=O)[C@@H](NC(=O)CSc3ccncc3)[C@H]2SC1 [Cephapirin sodium]
## Result 3.36

## Task // query inhibition at 5 µM value for entry CC(=O)c1ccc(S(=O)(=O)NC(=O)NC2CCCCC2)cc1 [Acetohexamide]
## Result 2.5

====

biological target: UniProt P0DTD1; experiment: biochemical; assay type: biochemical; design: unit not given here; conditions: sheet LOPAC_screen_w_protease; primary screen with protease, 5 µM; replicate 1
Give Replicate_1 for every item shown.

## Task // query Replicate_1 value for entry CCCCC#Cc1nc(N)c2ncn([C@@H]3O[C@H](C(=O)NCC)[C@@H](O)[C@H]3O)c2n1 [HE-NECA]
## Result 3.132

## Task // query Replicate_1 value for entry Cc1ccc(/C(=C\CN2CCCC2)c2ccccn2)cc1.Cl [Triprolidine hydrochloride]
## Result 0.1702

## Task // query Replicate_1 value for entry COC1(C2=NCCN2)COc2ccccc2O1.Cl (stereo not drawn) [RX 821002 hydrochloride]
## Result -1.138

## Task // query Replicate_1 value for entry C=CC[C@H](N)C(=O)O [L-allylglycine]
## Result -0.7105

## Task // query Replicate_1 value for entry Nc1nc(Nc2ccccc2)nc2c1ncn2[C@@H]1O[C@H](CO)[C@@H](O)[C@H]1O [2-Phenylaminoadenosine]
## Result -0.3497

## Task // query Replicate_1 value for entry CCCCC/C=C\C/C=C\C/C=C\C/C=C\CCCC(=O)NCC(=O)O [N-arachidonylglycine]
## Result 1.728

## Task // query Replicate_1 value for entry Cl.NCCNC(=O)c1ccc(Cl)cc1 [Ro 16-6491 hydrochloride]
## Result 0.2844

## Task // query Replicate_1 value for entry Cn1c(=O)c2[nH]c(C3CCCC3)nc2n(C)c1=O [8-Cyclopentyl-1,3-dimethylxanthine]
## Result 2.489

## Task // query Replicate_1 value for entry Cl.Cl.NCCNS(=O)(=O)c1cccc2cnccc12 [H-9 dihydrochloride]
## Result 0.9278

====

biological target: SARS-CoV-2 3CLpro (Severe acute respiratory syndrome coronavirus 2, UniProt P0DTD1); assay: biochemical; format: biochemical; conditions: sheet LOPAC_screen_w_protease; primary screen at 5 µM; mean of two replicates
Quantity Name: mean (LOPAC screen with protease)
Please reply with the value in numeric form only.

## Task Request body: readout mean (LOPAC screen with protease), system SARS-CoV-2 3CLpro (Severe acute respiratory syndrome coronavirus 2, UniProt P0DTD1), query CC(=O)NCCc1ccc(O)c(O)c1.O [N-Acetyldopamine monohydrate] . Return the value.
## Result 81.0563

## Task Request body: readout mean (LOPAC screen with protease), system SARS-CoV-2 3CLpro (Severe acute respiratory syndrome coronavirus 2, UniProt P0DTD1), query `C[N+]1(C)CCN(c2ccccc2)CC1.[I-]` . Return the value.
## Result 7.007

## Task Request body: readout mean (LOPAC screen with protease), system SARS-CoV-2 3CLpro (Severe acute respiratory syndrome coronavirus 2, UniProt P0DTD1), query `Nc1ncn([C@@H]2O[C@H](CO)[C@@H](O)[C@H]2O)c(=O)n1` . Return the value.
## Result 9.256

## Task Request body: readout mean (LOPAC screen with protease), system SARS-CoV-2 3CLpro (Severe acute respiratory syndrome coronavirus 2, UniProt P0DTD1), query Oc1ccccc1O [Pyrocatechol, reference compound] . Return the value.
## Result 52.6956

## Task Request body: readout mean (LOPAC screen with protease), system SARS-CoV-2 3CLpro (Severe acute respiratory syndrome coronavirus 2, UniProt P0DTD1), query CC(C)(C)c1ccc(S(=O)(=O)/C=C/C#N)cc1 [Bay 11-7085, reference compound] . Return the value.
## Result 90.2992

## Task Request body: readout mean (LOPAC screen with protease), system SARS-CoV-2 3CLpro (Severe acute respiratory syndrome coronavirus 2, UniProt P0DTD1), query NS(=O)(=O)c1cccc2c1c([N+](=O)[O-])cc1nc([O-])c([O-])nc12.[Na+].[Na+] [NBQX disodium] . Return the value.
## Result 8.586
